Multi-source literature compilation: IC50 on RAC-beta serine/threonine-protein kinase (Homo sapiens, UniProt P31751).
attribute-measured: IC50

• Cn1ncc(COCC2CC2)c1-c1ccc2c(c1)CN([C@H](CN)Cc1cc(F)cc(F)c1)C2=O = < 500 nM
• Cn1ncc(Br)c1-c1ccc2c(c1)CN([C@H](CN)Cc1ccccc1)C2=O = < 500 nM
• Brc1n[nH]c2ncnc(N3CCN(Cc4ccc5c(c4)OCO5)CC3)c12 = > 2000 nM
• NC1(c2ccc(-c3nc4c(cc3-c3ccccc3)-n3c(Br)nnc3CO4)cc2)CCC1 = 1000 to 10000 nM
• C[C@]1(O)C[C@@](N)(c2ccc(-c3nc4n(c3-c3ccccc3)COc3cccnc3-4)cc2)C1 = 2 nM
• Cc1cnn(C)c1-c1ccc2c(c1)CN([C@H](CN)Cc1cccc(F)c1)C2=O = < 500 nM
• CC(C)NC[C@@H](C(=O)N1[C@@H]2CC[C@H]1CN(c1ncnc3c1[C@H](C)C[C@H]3F)C2)c1ccc(Cl)cc1 = 54 nM
• NC1(c2ccc(-c3nc4c(cc3-c3ccccc3)-c3n[nH]c(=O)n3CC4)cc2)CCC1 = 1000 to 10000 nM

###

pIC50: −log10 of the molar value.
Multi-source literature compilation: pIC50 on RAC-beta serine/threonine-protein kinase (Homo sapiens, UniProt P31751).
attribute-measured: pIC50

- Cn1ncc(Cl)c1-c1ccc2c(c1)CN([C@H](CN)Cc1ccc(C#N)cc1)C2=O: 5.30 to 6.30
- Cn1nccc1-c1ccc2c(c1)CN([C@H](CN)Cc1cccc(-c3ccsc3)c1)C2=O: 5.30 to 6.30
- Cn1ncc(-c2ccc3ccccc3c2)c1-c1ccc2c(c1)CN([C@H](CN)Cc1cccc(F)c1)C2=O: < 5.30
- Brc1n[nH]c2ncnc(N3CCN(Cc4cccc(Oc5ccccc5)c4)CC3)c12: < 5.70
- NC[C@H](Cc1cccc(F)c1)NC(=O)c1cc2c(s1)CCCn1ncc(Cl)c1-2: 7.62
- Clc1ccc(CN2CCN(c3ncnc4[nH]nc(Br)c34)CC2)c(Cl)c1: < 5.70
- CO/N=C1\COc2nc(-c3ccc(C4(N)CCC4)cc3)c(-c3ccccc3)cc2N1C: 6.00 to 7.00
- NC1(c2ccc(-c3nc4c(cc3-c3ccccc3)N(Cc3cccnc3)C(=O)CO4)cc2)CCC1: 6.00 to 7.00
- CCOC(=O)CN1C(=O)COc2nc(-c3ccc(C4(N)CCC4)cc3)c(-c3ccccc3)cc21: 6.00 to 7.00
- Cc1cnn(C)c1-c1cc2c(cn1)C(=O)N([C@H](CN)Cc1cc(F)cc(F)c1)C2: > 6.30
- NC[C@H](Cc1cccc(F)c1)NC(=O)c1cc2n(n1)CCCn1ncc(Cl)c1-2: 6.63
- CCN1C(=O)COc2nc(-c3ccc([C@]4(N)C[C@](C)(O)C4)cc3)c(-c3ccccc3)cc21: ≥ 7.00
- NC1(c2ccc(-c3nc4n(c3-c3ccccc3)COc3ccccc3-4)cc2)CCC1: 8.55
- Cc1nc2c([nH]1)CCc1nc(-c3ccc(C4(N)CCC4)cc3)c(-c3ccccc3)cc1-2: 5.00 to 6.00
- Cn1nccc1-c1cc2c(cn1)C(=O)N([C@H](CN)Cc1cc(F)cc(F)c1)C2: > 6.30
- C[C@H]1Oc2nc(-c3ccc(C4(N)CCC4)cc3)c(-c3ccccc3)cc2N(C)C1=O: 5.00 to 6.00
- NC[C@H](Cc1ccncc1)NC(=O)c1cc2c(s1)CCCn1ncc(Cl)c1-2: 6.79
- CC1Oc2nc(-c3ccc(C4(N)CCC4)cc3)c(-c3ccccc3)cc2N(C)C1=O (stereo not drawn): 5.00 to 6.00
- NC1(c2ccc(-c3nc4c(cc3-c3ccccc3)N(Cc3cnc[nH]3)C(=O)CO4)cc2)CCC1: 5.00 to 6.00
- Cn1ncc(Cl)c1-c1ccc2c(c1)CN([C@H](CNC1CCOCC1)Cc1cccc(F)c1)C2=O: 5.30 to 6.30
- NC1(c2ccc(-c3nc4c(cc3-c3ccccc3)C(=O)CCC4)cc2)CCC1: 5.00 to 6.00
- NC1(c2ccc(-c3nc4c(cc3-c3ccccc3)N(CC(F)(F)F)C(=O)CO4)cc2)CCC1: ≥ 7.00
- NC1(c2ccc(-c3nc4c(cc3-c3ccccc3)-c3nncn3CC4)cc2)CCC1: 6.00 to 7.00
- COCc1cnn(C)c1-c1ccc2c(c1)CN([C@H](CN)Cc1cccc(F)c1)C2=O: > 6.30
